test system: Aspergillus fumigatus; test: Antimicrobial activity against Aspergillus fumigatus RCMB 02568 after 48 hrs by serial dilution method; assay type: functional; conditions: RCMB 02568, 48 h
# MIC values compiled below
The reply should contain only the number, in µg/mL.

Some compounds with recorded MIC:
| chemicalString | MIC, µg/mL |
| --- | --- |
| Cc1ccc(/C=N/NC(=O)c2c[nH]c3cc(Cl)ccc3c2=O)cc1 | 62.5 |
| COc1ccc(OC)c(/C=N/NC(=O)c2ccc(-c3ccc(Cl)cc3)nc2C)c1 | 0.98 |
| COc1cc(/C=N/NC(=O)c2ccc(-c3cccc(Cl)c3)nc2C)cc(OC)c1OC | 0.98 |
| COc1ccc(OC)c(/C=N/NC(=O)c2ccc(-c3cccc(Cl)c3)nc2C)c1 | 0.98 |

Let us move to another entry and its MIC.
Input: I'd like to know its MIC. The compound in question is COc1ccc(/C=N/NC(=O)c2c[nH]c3cc(Cl)ccc3c2=O)cc1OC
Output: 3.9

====

system: Mycobacterium tuberculosis; assay: Antimycobacterial activity against Mycobacterium tuberculosis RCMB 010126 clinical isolate assessed as inhibition zone after 7 days by MABA; format: functional
Activity calls are given as the source filed them. No cut-off for these calls is given here.
metric: inhibition zone (IZ)

Some compounds with recorded inhibition zone (IZ):
| chemicalString | observedMeasurement |
| --- | --- |
| Cc1ccc(/C=N/NC(=O)c2ccc(-c3ccc(Cl)cc3)nc2C)cc1 | 26.35 mm |
| COc1cc(/C=N/NC(=O)c2ccc(-c3cccc(Cl)c3)nc2C)cc(OC)c1OC | 70.48 mm |
| COc1ccc(/C=N/NC(=O)c2c[nH]c3cc(Cl)ccc3c2=O)cc1OC | inactive |
| Cc1ccc(/C=N/NC(=O)c2c[nH]c3cc(Cl)ccc3c2=O)cc1 | inactive |
| O=C(N/N=C/c1ccc(Cl)cc1Cl)c1c[nH]c2cc(Cl)ccc2c1=O | inactive |

Input: State its inhibition zone (IZ) on Mycobacterium tuberculosis: COc1ccc(/C=N/NC(=O)c2ccc(-c3ccc(Cl)cc3)nc2C)cc1
Output: 70.34 mm

Input: State its inhibition zone (IZ) on Mycobacterium tuberculosis: COc1ccc(/C=N/NC(=O)c2c[nH]c3ccc(Cl)cc3c2=O)cc1OC
Output: 31.25 mm

Input: State its inhibition zone (IZ) on Mycobacterium tuberculosis: O=C(N/N=C/c1ccc(F)cc1)c1c[nH]c2cc(Cl)ccc2c1=O
Output: 36.42 mm

Input: State its inhibition zone (IZ) on Mycobacterium tuberculosis: COc1ccc(OC)c(/C=N/NC(=O)c2ccc(-c3ccc(Cl)cc3)nc2C)c1
Output: 85.32 mm

Input: State its inhibition zone (IZ) on Mycobacterium tuberculosis: Cc1nc(-c2ccc(Cl)cc2)ccc1C(=O)N/N=C/c1ccc(Cl)cc1
Output: 36.24 mm

====

# MIC values compiled below
system: Escherichia coli; assay: Antimicrobial activity against Escherichia coli RCMB 010052 after 24 hrs by serial dilution method; type: functional; settings: RCMB 010052, 24 h
The reply should contain only the number, in µg/mL.

Some compounds with recorded MIC:
| chemicalString | MIC [µg/mL] |
| --- | --- |
| COc1cc(/C=N/NC(=O)c2ccc(-c3cccc(Cl)c3)nc2C)cc(OC)c1OC | 0.49 |
| COc1ccc(OC)c(/C=N/NC(=O)c2ccc(-c3cccc(Cl)c3)nc2C)c1 | 0.98 |
| O=C(O)c1cn(C2CC2)c2cc(N3CCNCC3)c(F)cc2c1=O | 0.98 |
| COc1cc(/C=N/NC(=O)c2ccc(-c3ccc(Cl)cc3)nc2C)cc(OC)c1OC | 1.95 |
| O=C(N/N=C/c1ccc(Cl)cc1)c1c[nH]c2cc(Cl)ccc2c1=O | 7.81 |

Input: I'd like to know its MIC. The compound in question is COc1ccc(OC)c(/C=N/NC(=O)c2ccc(-c3ccc(Cl)cc3)nc2C)c1
Output: 0.49

Input: I'd like to know its MIC. The compound in question is COc1ccc(/C=N/NC(=O)c2c[nH]c3ccc(Cl)cc3c2=O)cc1OC
Output: 1.95

Input: I'd like to know its MIC. The compound in question is COc1ccc(/C=N/NC(=O)c2ccc(-c3cccc(Cl)c3)nc2C)cc1
Output: 3.9

Input: I'd like to know its MIC. The compound in question is COc1cc(/C=N/NC(=O)c2c[nH]c3ccc(Cl)cc3c2=O)cc(OC)c1OC
Output: 3.9

Input: I'd like to know its MIC. The compound in question is COc1ccc(/C=N/NC(=O)c2ccc(-c3cccc(Cl)c3)nc2C)cc1OC
Output: 1.95

Input: I'd like to know its MIC. The compound in question is O=C(N/N=C/c1ccc(Cl)cc1Cl)c1c[nH]c2cc(Cl)ccc2c1=O
Output: 0.49

Input: I'd like to know its MIC. The compound in question is Cc1nc(-c2ccc(Cl)cc2)ccc1C(=O)N/N=C/c1ccc(O)cc1
Output: 3.9

Input: I'd like to know its MIC. The compound in question is Cc1nc(-c2cccc(Cl)c2)ccc1C(=O)N/N=C/c1ccc(Cl)cc1
Output: 0.49

====

test system: WI-38; test: Cytotoxicity against human WI38 cells assessed as reduction in cell viability after 24 hrs by crystal violet staining-based colorimetric method; settings: WI-38, 24 h
# log10 of IC50 values compiled below
On a log10 scale: recorded IC50, unit µg/mL.

Some molecules with recorded log10 of IC50:
| chemicalString | observedMeasurement |
| --- | --- |
| COc1ccc(OC)c(/C=N/NC(=O)c2ccc(-c3cccc(Cl)c3)nc2C)c1 | 2.27 |
| COc1cc(/C=N/NC(=O)c2ccc(-c3ccc(Cl)cc3)nc2C)cc(OC)c1OC | 1.61 |
| COc1ccc(/C=N/NC(=O)c2ccc(-c3cccc(Cl)c3)nc2C)cc1 | 2.70 |
| COc1ccc(/C=N/NC(=O)c2ccc(-c3ccc(Cl)cc3)nc2C)cc1 | 2.70 |
| COc1ccc(/C=N/NC(=O)c2ccc(-c3ccc(Cl)cc3)nc2C)cc1OC | 2.65 |
| Cc1nc(-c2ccc(Cl)cc2)ccc1C(=O)N/N=C/c1ccc(O)cc1 | 2.70 |
| COc1cc(/C=N/NC(=O)c2ccc(-c3cccc(Cl)c3)nc2C)cc(OC)c1OC | 2.69 |
| COc1cccc(/C=N/NC(=O)c2ccc(-c3ccc(Cl)cc3)nc2C)c1O | 2.70 |
| COc1ccc(OC)c(/C=N/NC(=O)c2ccc(-c3ccc(Cl)cc3)nc2C)c1 | 2.70 |
| COc1ccc(/C=N/NC(=O)c2ccc(-c3cccc(Cl)c3)nc2C)cc1OC | 2.23 |

Let us move to another entry and its log10 of IC50.
Input: I'd like to know its log10 of IC50. The molecule in question is Cc1ccc(/C=N/NC(=O)c2ccc(-c3cccc(Cl)c3)nc2C)cc1
Output: 2.70

====

system: Aspergillus fumigatus; assay: Antimicrobial activity against Aspergillus fumigatus RCMB 02568 after 48 hrs by serial dilution method; format: functional; settings: RCMB 02568, 48 h
metric: log10 of MIC (log10 of the value in µg/mL)
On a log10 scale: recorded MIC, unit µg/mL.

Some compounds with recorded log10 of MIC:
| chemicalString | log10 of MIC |
| --- | --- |
| COc1ccc(/C=N/NC(=O)c2c[nH]c3ccc(Cl)cc3c2=O)cc1OC | 0.89 |
| C[C@@H]1[C@H](O)[C@@H](C)/C=C/C=C/C=C/C=C/C=C/C=C/C=C/[C@H](O[C@@H]2O[C@H](C)[C@@H](O)[C@H](N)[C@@H]2O)C[C@@H]2O[C@](O)(C[C@@H](O)C[C@@H](O)[C@H](O)CC[C@@H](O)C[C@@H](O)CC(=O)O[C@H]1C)C[C@H](O)[C@H]2C(=O)O | 0.29 |
| Cc1nc(-c2ccc(Cl)cc2)ccc1C(=O)N/N=C/c1ccc(O)cc1 | 0.59 |
| O=C(N/N=C/c1ccc(Cl)cc1)c1c[nH]c2cc(Cl)ccc2c1=O | 1.19 |
| O=C(N/N=C/c1ccc(Cl)cc1Cl)c1c[nH]c2ccc(Cl)cc2c1=O | 1.19 |
| COc1ccc(/C=N/NC(=O)c2ccc(-c3cccc(Cl)c3)nc2C)cc1OC | 0.59 |
| COc1cc(/C=N/NC(=O)c2ccc(-c3ccc(Cl)cc3)nc2C)cc(OC)c1OC | -0.01 |

Input: I'd like to know its log10 of MIC. The compound in question is COc1ccc(/C=N/NC(=O)c2ccc(-c3ccc(Cl)cc3)nc2C)cc1
Output: 0.29

====

tested on: Mycobacterium tuberculosis; assay: Antimycobacterial activity against Mycobacterium tuberculosis RCMB 010126 clinical isolate assessed as inhibition zone after 7 days by MABA; assay type: functional
The source made the active and inactive calls. No cut-off for these calls is given here.
metric: inhibition zone (IZ)

| chemicalString | observedMeasurement |
| --- | --- |
| O=C(N/N=C/c1ccc(Cl)cc1)c1c[nH]c2cc(Cl)ccc2c1=O | 19.35 mm |
| Cc1ccc(/C=N/NC(=O)c2ccc(-c3cccc(Cl)c3)nc2C)cc1 | 61.24 mm |
| O=C(N/N=C/c1ccc(Cl)cc1)c1c[nH]c2ccc(Cl)cc2c1=O | 17.8 mm |
| NNC(=O)c1ccncc1 | inactive |
| Cc1nc(-c2ccc(Cl)cc2)ccc1C(=O)N/N=C/c1ccc(F)cc1 | 40.31 mm |

Input: I'd like to know its inhibition zone (IZ). The compound in question is COc1ccc(/C=N/NC(=O)c2ccc(-c3cccc(Cl)c3)nc2C)cc1
Output: 60.42 mm

Input: I'd like to know its inhibition zone (IZ). The compound in question is COc1cc(/C=N/NC(=O)c2c[nH]c3cc(Cl)ccc3c2=O)cc(OC)c1OC
Output: 42.65 mm

Input: I'd like to know its inhibition zone (IZ). The compound in question is Cc1nc(-c2ccc(Cl)cc2)ccc1C(=O)N/N=C/c1ccc(Cl)cc1Cl
Output: 35.38 mm
